Numbers sourced from patent US8530465B2.

System: hTERT
procedure details: Secreted alkaline phosphatase (SEAP) assay, PhTERT-SEAP (H1299)
Type: cell-based
condition summary: Homo sapiens, NCI-H1299, Conc. 100 μM, 24 hours, read-out: Relative SEAP activity (%) (converted)
Each entry below carries its recorded activity at 100 µM.
The response must be a number in % with no trailing unit.

Here is how some compounds turned out for activity at 100 µM.
- O=C(CCl)Nc1ccc2c(c1NC(=O)c1cccs1)C(=O)c1ccccc1C2=O [CC-28]: 2.2
- O=C(CCl)Nc1ccc2c(c1NC(=O)c1ccc(F)cc1)C(=O)c1ccccc1C2=O [CC-15]: 0.52
- O=C(CCl)Nc1ccc2c(c1NC(=O)CSc1ccccc1)C(=O)c1ccccc1C2=O [CC-32]: -0.05

We next turn to a different compound, shown below.
Q: Given the entry O=C(CCl)Nc1ccc2c(c1NC(=O)CCl)C(=O)c1ccccc1C2=O [CC-01, 1,2-bis-(chloroacetamido)-anthraquinone] , report its measured activity at 100 µM.
Result: 13.7
